assay-explanation: soluble on expression in E. coli; label from the status in PepcDB or PDB records
measure-name: soluble on expression in E. coli

record_sequence=MAHHHHHHSLNDELKNKSGKVKVMYVRSDDDSDKRTHNPRTGKGGGRPAKSRTDGGRRPARDERNNQSRDRKHETSPWRTVSRAPGDETPEKVDHGGISGKSFIDPEVLRRQRAEETRVYGENACQALFQSRPDAIVRAWFIQSVTPRFKEALRWMAANRKAYHVVDEAELAKASGTEHHGGVCFLIKKRNGTTVKQWVKQAADQDCVLALEDVANPHNLGGMMRSCAHFGVKGVVVQDAALLESGAAIRTAEGGAEHVQPITGESIVDVLDDFRQAGYTVVTTSSDRGQALFSTTLPEKMVLVLGREYDYLPEAAREPDDLCVKINGTGNVESLNVSVATGVLLAEWWRQNKAEG test_result=soluble
record_sequence=AHHHHHHGSTKRVKVITDPEVIKVMLEDTRRKILQLLRNREMTISQLSEILGKMPQTIYHHIEKLKEAGLVEVKRTEMKGNLVEKYYGRTADVFYINLYMGDEELRYLARSRLKTKLDIFKKLGYKFDEEELLNVMDRILEKEHEVKVEISKEIENVEDSLKEFSNEDIIHAIEWLAMARLAQDEEYIELVKKLGQILKR test_result=soluble

###

assay-explanation: soluble on expression in E. coli; label from the status in PepcDB or PDB records
measure-name: soluble on expression in E. coli

Worked examples follow.
record_sequence=MKVMLSLFKRESIKGITMKKSTLLNSELSYLVATLGHTDEITICDAGLPIPDEVTRIDLALTHGVPSFLETVRVILSESQIESVIVAQEFAQVSPVLHEALYRELKAEEQLCGKPIAIQYISHEAFKQRTLQSRAVVRTGECTPYANVIFQAGVVF test_result="not soluble"
record_sequence=CISMSKIAVVINPIAGGGRGKKVWKVLKPGLHALFEQTVYRISNRVNDLEAITDGLLAENPDSLLIIGGDGTLNHVLNGLIEKDKLKNPQTKIAFFNAGCGGDFTRQFPQQKMTEFLDRLSHNQFIKCDIGKITLAN test_result="not soluble"
record_sequence=MELLFLGTGAGIPAKARNVTSVALKLLEERRSVWLFDCGEATQHQMLHTTIKPRKIEKIFITHMAGDHVYGLPGLLGSRSFQGGEDELTVYGPKGIKAFIETSLAVTKTHLTYPLAIQEIEEGIVFEDDQFIVTAVSVIHGVEAFGYRVQEKDVPGSLKADVLKEMNIPPGPVYQKIKKGETVTLEDGRIINGNDFLEPPKKGRSVVFSGDTRVSDKLKELARDCDVMVHEATFAKEDRKLAYDYYHSTTEQAAVTAKEARAKQLILTHISARYQGDASLELQKEAVDVFPNSVAAYDFLEVNVPRGKLAAALEHHHHHH test_result=soluble
record_sequence=MMLNNFETDSIFTPEQVLENRGRVAIFIDGSNLFYAALQLGIEIDYTKLLCRLTGGSRLLRSFFYTGVDRTNEKQQGFLLWMRRNGYRVIAKDLVQLPDGSKKANLDVEIAVDMMALVDSYDTAVLVSGDGDLAYAVNSVSYRGVRVEVVSLRSMTSDSLINVSDRYIDLEAIKEDIQKTPRQSYPYRPLSGIGFLEDPRTSDGHLEIQE test_result="not soluble"
record_sequence=MGSDKIHHHHHHMKRIRNISVVGMGAVGCAYGRKLYKLNPNNFKIIADDKRKEKLTKNGFLINGEKYDFKCVSPNENLGKDDLIIIAVKYNQLEEAIEEIRNYVGENTIILSFLNGIKSEEEIGKVYGMDKILYSYCVLESTRKGSEVYVSDGYKIVFGQKESDNKYEKIKAVRELFDDAEIDYEIPVDIIHSMWSKFMFNVGINPVSAILKANYGMLQKNKYARETMVSAMMEVINISQKASVNLKIEEINHWLAVLDECELHGKTSMCQDILMGRKTEIDMLSGEVCALGEKYGVDTPVNRTLFNMVKSIE test_result="not soluble"

// query Entry MNNIRQLTKDEYPKAIELSWQVFTITGKEDFNNEGLEFFKSFIYNKKCINEIIFYGSFDNEALTGILGIKSNGKHISLFFIKPEYHRHGLGKKLFHYASTLHPSIETTVNSSTYAIPFYRSLGFAVVGEKQNYHGLCSTPMRRYHAVFVQKNKYTLRTWQTEDAHSLVQELNNKKIWDNCRNVFPHPYRLEHAETFIDLIQKKEGIHDFCIEVNGKAVGNIGFTPGTDVECFNAEVGYVIGEKYWNQGIVTDALQEAIYHYFTYTNTIRIFALVFEHNLPSMRVLEKAGFNKVGIMTKSIFKNGHFTNAHLFELLKNVLEHHHHHH : reported soluble on expression in E. coli = ?
// result not soluble

// query Entry MAHHHHHHMGQSKTKLQVVMCGLDNSGKTTIINQVKPAQSSSKHITATVGYNVETFEKGRVAFTVFDMGGAKKFRGLWETYYDNIDAVIFVVDSSDHLRLCVVKSEIQAMLKHEDIRRELPGGGRVPFLFFANKMDAAGAKTAAELVEILDLTTLMGDHPFVIFASNALKGTGVHEGFSWLQETASRQSGKAGTKRG please
// result soluble

// query Entry MGSDKIHHHHHHMNGQPLIQVSDFEGPLDLLLHLIKTNEMDIYDIRISTITSQYLTYLHQMQLVRLDVAGEYFVMAANLMAIKAKLLLPKPQSVVPVDEDEPADPREELVNQLLEYQRYKQAAQALKQRALERQQHFTRPAMAVPESVELTVAPGIKPVDLQTALVRLMQRATLAKPVTQSVHQEHFTIKRQMTTILQRLKGTTAPVAFEQLLVTHPVMEEVVTTFLAVLELARQRQVQLQQAGRLAPLQVNFLQMEGRFSTDVTSSTD please
// result not soluble

// query Entry MGSDKIHHHHHHMDDIKSQIKELRLGAKIRKLRQDRRLTLQELSELSGLSKPLLSQIENDQVTPPIATLLKISKGLKVGIHYFFEEEEDQQKVVLTRAAQQQPTRRRSGNDAPHGYIYRSLAPGIRHKPMEPFLVEFELTDWSDSFFYRHDGFEFIYLLDGELEFHYGSDVMRLLPGDSIYYDSSEPHGYVSVGEERARAVAVLYTRD please
// result not soluble

// query Entry MGSDKIHHHHHHMKLITVSGPPSSGKTSLIIKTVESLKAQNIKVGIVKFDCLYTDDDILYEKAGILVKKGLSGSVCPDHFFASNIEEVVQWGKTNNLDLLITESAGLCNRCSPYLKDIKAVCVIDNLSGINTPKKIGPMLKLADIVVITKGDIVSQAEREVFASRVQTVNPKAAIIHINGLTGQGTYEFGSLIMDKNEEIDTVIERKLRFPLPSAVCSYCLGETRIGNNYQLGNIRKINFEEQ please
// result not soluble

// query Entry MSPLTTFLTDAQQQTLHQLIVSARDSGANEEMVKESMDEYLAQILSPDRLQELKTAHDEFEAQRRGKRAAISASDKPEPKKVFDIIDQFTSDYQKFYEESSAVRNRNNIN please
// result soluble

// query Entry MVDIDSAVEAARRRGARRIVLQLPEGMLQYGLYIAKCFEEMLGGAAQVYLHADPTFGACDLHYGELDTTVRPDLIVHVGHSPYPAELAHEGLEPRGRVVYVRALSKSQLPLDALREAAGLLASRYGVRRVGIATTAQHTHLAEKAAEVLRGEGLEVAVPPGLRPYFGAAQVLGCDYRLARGVRADGFVYVGGGVFHPLGLYLATLKPVVQVDPYRGVSEDLTREGEKLYRSRLYRVSQSIGARRWGIIVGLKSGQYRPWLVEKLARAIESAGGEYLLVASEVTTLSQLVAIDNPWFEAFTVTSCPRLPTDDFWSYEKPVLTPGEAMMALEGRLEPYRFPWAAALEHHHHHH please
// result not soluble

###

assay-explanation: soluble on expression in E. coli; label from the status in PepcDB or PDB records
measure-name: soluble on expression in E. coli

record_sequence=MAHHHHHHMGGVTLHKVNTCPWWQRKNYEIEKSFFLRSAPPPLRKKRNQLRQYNHAENNSYTNIYTIKNPLKCKVVDKVSLVRQNALHEVYNVEIDHGGMFKYLEGHSCGVIPYYEDLIQADDKNNSQEGRKKRGNKFARLYSISSTNAENLSFAIRIHSYQEEENGCMQHKYGYCSGYIKELKKNDNIYITGAHGCFLLPDNVSEKNTNLILIATGTGISPYISFLKKIWGYQPGIHQQKKTYNGQVYLYYGVYYEDSILYLPELKYFQNMYPNNFHVEYVFSSIKNSDGTSHHVQDEIYKKRENFLRLFNELNCELYICGHKSIRAKIMDILKGENPVLDSEKKKRVHVEVY test_result="not soluble"
record_sequence=MGSDKIHHHHHHMAVIYYDKDADLNLIKDKKIAIIGYGSQGHAHALNLKDSGLNVVVGLREGSKSWKKAEEQGLTVKTIEEAAKEADIIMILIPDEHQPEIYKKYIEKHLTEGKMLMFAHGFNIHYHQIIPPKNVDVTMIAPKSPGHIVRREYVEGRGVPALVAVYQDYTGKAKDIALAYAKGIGVTRAGVIETTFKEETETDLFGEQAVLCGGVTALIKAGFETLVDAGYQPEIAYFECLNELKLIVDLIYEGGLSFMRYSVSNTAEYGDYISQEKIVTKEVRENMKQMLKDIQTGKFAKDWILENQAGRPYFYTMRKKESEHLIEKVGKELRKMMPWLKERNVDEE test_result="not soluble"
